# measuredTarget: Human DP1 receptor (Homo sapiens (Human))
# Sequence (Q13258 whole entry): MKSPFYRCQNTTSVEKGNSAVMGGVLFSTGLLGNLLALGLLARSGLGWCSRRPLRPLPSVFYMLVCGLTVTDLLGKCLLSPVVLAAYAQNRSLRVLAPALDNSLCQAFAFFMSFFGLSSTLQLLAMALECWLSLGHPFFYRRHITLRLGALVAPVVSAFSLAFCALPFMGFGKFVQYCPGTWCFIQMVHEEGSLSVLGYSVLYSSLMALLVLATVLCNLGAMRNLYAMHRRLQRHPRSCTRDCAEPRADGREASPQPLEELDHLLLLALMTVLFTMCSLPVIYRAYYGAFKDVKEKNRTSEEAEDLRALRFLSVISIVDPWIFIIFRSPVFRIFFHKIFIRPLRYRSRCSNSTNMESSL
# protocolDetails: Human DP1 inhibitory activity in DP1-expressing cell (PGD2-induced cAMP)
# Assay type: cell-based
# conditionsUsed: category of cAMP IC50, human DP1 receptor expressing Jurkut cell
experimentalReadout: IC50

INSERT INTO assay_data (compound, recordedresult) VALUES
  ('CCOc1ccc(S(=O)(=O)N2C[C@@H](C)[C@@H](n3nc(CC(=O)O)c4ccc(C)cc43)C2)c(F)c1 [Compound I-237]', '< 100 nM'),
  ('CC(C)Oc1ccc(S(=O)(=O)N2C[C@H](n3nc(CC(=O)O)c4ccc(F)cc43)C[C@H]2C(N)=O)cc1 [Compound I-2]', '100 to 5000 nM'),
  ('CCOc1ccc(S(=O)(=O)N2C[C@H](n3nc(CC(=O)O)c4ccccc43)[C@@](C)(F)C2)cc1 (racemic) [Compound I-228]', '< 100 nM'),
  ('COc1ccc(S(=O)(=O)N2C[C@@H](C)[C@@H](n3nc(CC(=O)O)c4ccc(Cl)cc43)C2)cc1 [Compound I-140]', '< 100 nM'),
  ('CC(C)Oc1ccc(S(=O)(=O)N2C[C@H](n3nc(CC(=O)O)c4ccc(F)cc43)C[C@@H]2COc2cccc(I)c2)cc1 [Compound I-295]', '< 100 nM'),
  ('CC(C)Oc1ccc(S(=O)(=O)N2C[C@H](n3nc(CC(=O)O)c4ccc(F)cc43)C[C@H]2c2ccccc2)cc1 [Compound I-359]', '100 to 5000 nM'),
  ('CC(C)Oc1ccc(S(=O)(=O)N2C[C@@H](C3CC3)[C@@H](n3nc(CC(=O)O)c4ccc(F)cc43)C2)cc1 [Compound I-41]', '100 to 5000 nM');

====

# measuredTarget: CRTH2 (Homo sapiens (Human))
# Sequence (Q9Y5Y4 whole entry): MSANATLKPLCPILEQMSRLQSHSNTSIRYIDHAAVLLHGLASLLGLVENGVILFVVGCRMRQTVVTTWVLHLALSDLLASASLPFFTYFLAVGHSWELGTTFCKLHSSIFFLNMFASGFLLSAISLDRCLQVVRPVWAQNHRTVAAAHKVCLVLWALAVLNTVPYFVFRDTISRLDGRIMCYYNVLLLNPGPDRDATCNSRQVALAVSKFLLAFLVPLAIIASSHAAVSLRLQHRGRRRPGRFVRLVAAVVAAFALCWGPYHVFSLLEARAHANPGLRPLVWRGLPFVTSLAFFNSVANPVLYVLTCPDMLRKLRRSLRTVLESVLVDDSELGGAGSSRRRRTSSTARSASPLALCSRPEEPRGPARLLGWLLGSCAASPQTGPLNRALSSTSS
# protocolDetails: CRTH2 receptor binding inhibitory activity ([3H]-PGD2 displacement, membranes of CRTH2-expressing K562 cell)
# conditionsUsed: CRTH2 receptor binding, [3H]-PGD2 displacement, membrane of CRTH2-expressing K562 cell; categorized AAAA/AAA; read-out: Ki
pKi: −log10 of the molar value.
Let's look at some compounds and their measured pKi.
experimentalReadout: pKi

INSERT INTO measurements (compound, measuredtarget, recordedresult) VALUES
  ('CCC[C@@H]1CN(S(=O)(=O)c2ccc(OC(C)C)cc2)C[C@@H]1n1nc(CC(=O)O)c2ccc(F)cc21 [Compound I-34]', 'CRTH2 (Homo sapiens (Human))', '> 7.00'),
  ('C[C@@H]1CN(S(=O)(=O)c2ccc(OC(F)F)cc2)C[C@@H]1n1nc(CC(=O)O)c2cc(F)ccc21 [Compound I-251]', 'CRTH2 (Homo sapiens (Human))', '> 7.00'),
  ('CCOc1ccc(S(=O)(=O)N2C[C@@H](C)[C@@H](n3nc(CC(=O)O)c4ccc(C)cc43)C2)s1 [Compound I-171]', 'CRTH2 (Homo sapiens (Human))', '> 7.00'),
  ('COc1ccc(S(=O)(=O)N2C[C@@H](C)[C@@H](n3nc(CC(=O)O)c4ccccc43)C2)cn1 [Compound I-240]', 'CRTH2 (Homo sapiens (Human))', '> 7.00'),
  ('CCOc1ccc(S(=O)(=O)N2C[C@H](n3nc(CC(=O)O)c4ccccc43)C[C@@H]2CF)cn1 [Compound I-275]', 'CRTH2 (Homo sapiens (Human))', '5.30 to 7.00'),
  ('CC(C)Oc1ccc(S(=O)(=O)N2C[C@H](n3nc(CC(=O)O)c4ccccc43)C[C@@H]2C(F)F)cc1 [Compound I-90]', 'CRTH2 (Homo sapiens (Human))', '5.30 to 7.00'),
  ('CCOc1ccc(S(=O)(=O)N2C[C@H](F)[C@@H](n3nc(CC(=O)O)c4ccccc43)C2)cc1 [Compound I-313]', 'CRTH2 (Homo sapiens (Human))', '> 7.00'),
  ('CC(C)Oc1ccc(S(=O)(=O)N2C[C@H](n3nc(CC(=O)O)c4ccc(F)cc43)C[C@@H]2Cc2ccccc2)cc1 [Compound I-348]', 'CRTH2 (Homo sapiens (Human))', '> 7.00'),
  ('CCOc1ccc(S(=O)(=O)N2C[C@@H](C)[C@@H](n3nc(CC(=O)O)c4ccc(C(F)(F)F)cc43)C2)cn1 [Compound I-132]', 'CRTH2 (Homo sapiens (Human))', '> 7.00'),
  ('CCOc1ccc(S(=O)(=O)N2C[C@@H](C)[C@@H](n3nc(CC(=O)O)c4ccccc43)C2)c(CCc2ccccc2)c1 [Compound I-186]', 'CRTH2 (Homo sapiens (Human))', '> 7.00'),
  ('CCOc1ccc(S(=O)(=O)N2C[C@H](n3nc(CC(=O)O)c4ccccc43)C[C@@H]2C)cc1 [Compound I-196]', 'CRTH2 (Homo sapiens (Human))', '> 7.00'),
  ('CCOc1ccc(S(=O)(=O)N2C[C@@H](C)[C@@H](n3nc(CC(=O)O)c4cc(Cl)ccc43)C2)cn1 [Compound I-162]', 'CRTH2 (Homo sapiens (Human))', '5.30 to 7.00'),
  ('CCOc1ccc(S(=O)(=O)N2C[C@H](n3nc(CC(=O)O)c4ccccc43)C[C@@H]2CC2COC2)cc1 [Compound I-352]', 'CRTH2 (Homo sapiens (Human))', '5.30 to 7.00'),
  ('CCOc1ccc(S(=O)(=O)N2C[C@@H](C)[C@@H](n3nc(CC(=O)O)c4ccccc43)C2)c(CNC(C)=O)c1 [Compound I-259]', 'CRTH2 (Homo sapiens (Human))', '> 7.00');
